- testedSystem: T1, biotinylated hBLyS-ECD (human, UniProt Q9Y275 134-285, biotinylated with Biotin-X-X-NHS (molar ratio 7:1), sites not stated)
- T1 construct: The hBLyS-ECD of Embodiment 1 after biotinylation (Embodiment 2); also called biotinylated immunogen; BLyS protein; not shown: His tag of the pCPC vector
- T1 sequence (Q9Y275 134-285): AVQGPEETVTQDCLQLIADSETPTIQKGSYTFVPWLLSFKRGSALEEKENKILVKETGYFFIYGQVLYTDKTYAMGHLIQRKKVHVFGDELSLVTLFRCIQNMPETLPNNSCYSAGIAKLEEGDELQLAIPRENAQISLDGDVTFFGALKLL
- assayOverview: ELISA, biotinylated hBLyS-ECD captured on streptavidin; antibody 66.7 nM
quantity: OD450 nm

>  <binder>
111D10D6G3 (antibody, V domains shown, Mouse hybridoma antibody purified on Protein G) VH: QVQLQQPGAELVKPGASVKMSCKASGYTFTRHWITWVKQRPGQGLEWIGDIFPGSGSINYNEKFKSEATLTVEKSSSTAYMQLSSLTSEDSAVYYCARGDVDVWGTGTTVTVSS VL: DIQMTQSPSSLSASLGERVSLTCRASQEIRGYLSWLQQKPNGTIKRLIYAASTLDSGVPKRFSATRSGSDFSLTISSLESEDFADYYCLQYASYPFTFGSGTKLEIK

>  <recordedResult>
1.94

$$$$
>  <binder>
L1D12 (antibody, human IgG1, V domains shown, also called LID12) VH: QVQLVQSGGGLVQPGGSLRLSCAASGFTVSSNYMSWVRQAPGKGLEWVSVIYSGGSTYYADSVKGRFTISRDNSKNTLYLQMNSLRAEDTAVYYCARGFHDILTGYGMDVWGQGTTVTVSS VL: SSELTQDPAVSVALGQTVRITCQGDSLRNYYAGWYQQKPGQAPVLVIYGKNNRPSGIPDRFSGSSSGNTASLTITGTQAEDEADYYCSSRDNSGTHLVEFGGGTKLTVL

>  <recordedResult>
1.75

$$$$
>  <binder>
8E7D9C7F5 (antibody, V domains shown, Mouse hybridoma antibody purified on Protein G) VH: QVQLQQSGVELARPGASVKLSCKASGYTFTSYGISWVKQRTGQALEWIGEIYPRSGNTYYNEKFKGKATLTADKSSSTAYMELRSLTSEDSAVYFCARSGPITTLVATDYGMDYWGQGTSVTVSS VL: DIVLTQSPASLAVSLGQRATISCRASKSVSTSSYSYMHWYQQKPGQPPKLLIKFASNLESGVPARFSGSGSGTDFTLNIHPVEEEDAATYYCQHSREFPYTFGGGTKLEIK

>  <recordedResult>
2.72

$$$$
